Tested on: VACV-WR in BSC-1 cells
Assay: microbe, parasite or virus in culture
Type: cell-based, vaccinia virus
Conditions: read-out: VV plaque size IC50 μM (c)
recorded-endpoint: IC50

// query Indicate its recorded IC50; the compound in question is CCCCCOCCCCCCCCCc1cc2cn([C@H]3CC[C@@H](CO)O3)c(=O)nc2o1 [Cf 2095, reference compound]
// result 1.5 µM
